test: Distribution coefficient, log D of the compound at pH 1.5; type: physicochemical; conditions: octanol/water
logD overview
Number, no unit, nothing else.

{"Compound string": "C[C@H](CCC(O)(P(=O)(O)O)P(=O)(O)O)[C@H]1CC[C@H]2[C@@H]3[C@@H](O)C[C@@H]4C[C@H](O)CC[C@]4(C)[C@H]3CC[C@]12C", "Recorded value": 0.44}

Per the records, this compound ( `C[C@H](CCC(O)(P(=O)(O)O)P(=O)(O)O)[C@H]1CC[C@H]2[C@@H]3[C@H](O)C[C@@H]4C[C@H](O)CC[C@]4(C)[C@H]3CC[C@]12C` ) has logD equal to 0.44

logD in this record for `C[C@H](CCC(O)(P(=O)(O)O)P(=O)(O)O)[C@H]1CC[C@H]2[C@@H]3[C@H](O)C[C@@H]4C[C@H](O)CC[C@]4(C)[C@H]3C[C@H](O)[C@]12C` : -0.76

Memo: `O=P(O)(O)C(Cl)(Cl)P(=O)(O)O` , reported logD: -1.32

====

assay: Distribution coefficient, log D of the compound at pH 7.4; type: physicochemical; settings: octanol/water, read-out: logD
Experimental endpoint: logD
Just the number.

{"Compound string": "C[C@H](CCC(O)(P(=O)(O)O)P(=O)(O)O)[C@H]1CC[C@H]2[C@@H]3[C@@H](O)C[C@@H]4C[C@H](O)CC[C@]4(C)[C@H]3CC[C@]12C", "logD": -3.34}

Lab note: next molecule to report on.
logD reported for this molecule `C[C@H](CCC(O)(P(=O)(O)O)P(=O)(O)O)[C@H]1CC[C@H]2[C@@H]3[C@H](O)C[C@@H]4C[C@H](O)CC[C@]4(C)[C@H]3CC[C@]12C` : -3.34

FYI, the data here is from ChEMBL document CHEMBL2021915.
